experimental details: IUF_NPC3_neuronal_differentiation_120hr: Leibniz Research Institute for Environmental Medicine (IUF) 120-hour Neuronal Differentiation Assay (NPC3) (AID 2284301)
Activity calls are given as the source filed them. The calls were made as follows: active = hit-call score of the fitted dose curve at least 0.9, where 1 is the maximum; inactive = score below 0.9.
Outcome codes: true (active), false (inactive)

| compound | group |
| --- | --- |
| COC(=O)N(OC)c1ccccc1COc1ccn(-c2ccc(Cl)cc2)n1 | true |
| CCOC(=O)CC(SP(=S)(OC)OC)C(=O)OCC (configuration not stated) | false |
| CNC(=O)ON=CC(C)(C)SC | false |
| CN(C)C(=S)SSC(=S)N(C)C | true |
| CCCCOC(=O)c1ccccc1C(=O)OCCCC | false |
| N#Cc1nn(-c2c(Cl)cc(C(F)(F)F)cc2Cl)c(N)c1S(=O)C(F)(F)F (configuration not stated) | false |
| CCOc1cc(Oc2ccc(C(F)(F)F)cc2Cl)ccc1[N+](=O)[O-] | false |
| C=CC1(C)OC(=O)N(c2cc(Cl)cc(Cl)c2)C1=O (configuration not stated) | false |
| COP(N)(=O)SC (configuration not stated) | false |
| CCCCC(CC)COC(=O)c1ccccc1C(=O)OCC(CC)CCCC (configuration not stated) | false |
| COP(=S)(OC)Oc1nc(Cl)c(Cl)cc1Cl | false |
| CC(C)(C)c1ccc(CSc2cnn(C(C)(C)C)c(=O)c2Cl)cc1 | false |

###

Read-out: Macrophage colony-stimulating factor (MCSF), CSF1 (gene 1435)
experimental details: BSK_hDFCGF_MCSF: BioMAP Diversity Plus: hDFCGF Assay for Macrophage colony-stimulating factor (MCSF) Biomarker Activity (AID 2283060)
assay setup: primary human foreskin fibroblasts; actives raise or lower the signal
Calls of active or inactive are those of the source. The calls were made as follows: active = hit-call score of the fitted dose curve at least 0.9, where 1 is the maximum; inactive = score below 0.9.

| molecule | AC50 |
| --- | --- |
| CC1COC(Cn2cncn2)(c2ccc(Oc3ccc(Cl)cc3)cc2Cl)O1 (stereo unspecified) | 32.2 µM (active) |
| CON(C)C(=O)Nc1ccc(Cl)c(Cl)c1 | inactive |
| O=C(O)COc1nc(Cl)c(Cl)cc1Cl | inactive |
| COc1nc(C)nc(NC(=O)NS(=O)(=O)c2ccccc2Cl)n1 | inactive |
| CCON=C(CC)C1=C(O)CC(c2c(C)cc(C)cc2C)CC1=O (stereo unspecified) | inactive |
| O=C(O)c1nc(Cl)ccc1Cl | inactive |

###

Read-out: Human Leukocyte Antigen - DR isotype (HLADR), HLA-DRA (gene 3122)
experimental details: BSK_CASM3C_HLADR: BioMAP Diversity Plus: CASM3C Assay for Human Leukocyte Antigen - DR isotype (HLADR) Biomarker Activity (AID 2283043);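 also: cell-surface HLA-DR protein level quantified by ELISA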
assay setup: primary human coronary artery smooth muscle cells; actives raise or lower the signal
Calls of active or inactive are those of the source. The calls were made as follows: active = hit-call score of the fitted dose curve at least 0.9, where 1 is the maximum; inactive = score below 0.9.
Outcome codes: active, inactive

| compound | group |
| --- | --- |
| CCNc1nc(Cl)nc(NCC)n1 | inactive |
| N#CC(CCc1ccc(Cl)cc1)(Cn1cncn1)c1ccccc1 (stereo not given) | inactive |
| Fc1ccc(Oc2ccnc3cc(Cl)cc(Cl)c23)cc1 | inactive |
| CS/C(C)=N/OC(=O)N(C)SN(C)C(=O)O/N=C(\C)SC | inactive |
| COc1nc(C)nc(NC(=O)NS(=O)(=O)c2ccccc2CCC(F)(F)F)n1 | inactive |
| CCOc1cc(Oc2ccc(C(F)(F)F)cc2Cl)ccc1[N+](=O)[O-] | inactive |
| CCOC(=O)CC(SP(=S)(OC)OC)C(=O)OCC (stereo not given) | inactive |
| COC(=O)C=C(C)OP(=O)(OC)OC | inactive |
| CC1COC(Cn2cncn2)(c2ccc(Oc3ccc(Cl)cc3)cc2Cl)O1 (stereo not given) | inactive |
| CC(Oc1ccc(Cl)cc1Cl)C(=O)O (stereo not given) | inactive |
| N#Cc1cc(Br)c(O)c(Br)c1 | inactive |
| CCOP(=S)(OCC)SCn1c(=O)oc2cc(Cl)ccc21 | inactive |
| CNC(=O)ON=CC(C)(C)SC | inactive |
| CCON=C(CC)C1=C(O)CC(c2c(C)cc(C)cc2C)CC1=O (stereo not given) | inactive |
| C#CCOS(=O)OC1CCCCC1Oc1ccc(C(C)(C)C)cc1 (stereo not given) | active |
| COc1cnc(OC)n2nc(NS(=O)(=O)c3c(OCC(F)F)cccc3C(F)(F)F)nc12 | inactive |
| CO/C=C(/C(=O)OC)c1ccccc1Oc1cc(Oc2ccccc2C#N)ncn1 | inactive |
| CC(C)(C)c1ccc(CSc2cnn(C(C)(C)C)c(=O)c2Cl)cc1 | inactive |
| CON(C)C(=O)Nc1ccc(Cl)c(Cl)c1 | inactive |
| CC1=C(C(=O)Nc2ccccc2)SCCO1 | inactive |
| CCCC1COC(Cn2cncn2)(c2ccc(Cl)cc2Cl)O1 (stereo not given) | inactive |
| CCc1nn(C)c(C(=O)NCc2ccc(C(C)(C)C)cc2)c1Cl | inactive |
| COc1nc(NC(C)C)nc(NC(C)C)n1 | inactive |
| Cc1ccc(-c2c(Cl)nc(C#N)n2S(=O)(=O)N(C)C)cc1 | inactive |
| COC(=O)C(C)Oc1ccc(Oc2ccc(Cl)cc2Cl)cc1 (stereo not given) | inactive |

Hello, the source for this data is PubChem BioAssay (EPA / NIEHS), in case you need it.
